- Test system: wheat germ agglutinin (Triticum aestivum), Alexa647-labelled
- Assay Procedure: wheat germ agglutinin binders on compound microarrays, profiling panel, artefact control for SMM control-protein annotation, biochemical, small-molecule microarray, 635/667 nm fluorescence (AID 1140);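 further: score merges 667 nm feature emission with signal to noise over triplicate slides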
- Condition Parameters: WGA-A647 binding, 635 nm fluorescence, higher = more signal
Measured Metric: composite z-score
Give a plain numeric answer without units written out.

Below are worked cases with known answers.
| Molecule | System Name | composite z-score |
| --- | --- | --- |
| C=CCNC(=O)[C@H]1[C@@H]2C(=O)O[C@@H](c3ccccc3)[C@@H](c3ccccc3)N2[C@@H](c2ccc(O)cc2)[C@]12C(=O)N(C(=O)OCCOC)c1ccc(C#CC3=CCCCC3)cc12 | wheat germ agglutinin (Triticum aestivum), Alexa647-labelled | 0.583 |
| COc1ccc(O[C@H]2C=C[C@@H](c3ccccc3)O[C@@H]2COC(=O)CCC(C)=NOCC[C@@H]2C=C[C@H](OC(C)=O)[C@@H](COC(C)=O)O2)cc1 | wheat germ agglutinin (Triticum aestivum), Alexa647-labelled | 0.193 |
| O=C1O[C@@H](c2ccccc2)[C@@H](c2ccccc2)N2[C@@H](c3ccc(OCCO)cc3)[C@]3(C(=O)Nc4ccccc43)[C@@H](C(=O)N3CCN(c4ncccn4)CC3)[C@H]12 | wheat germ agglutinin (Triticum aestivum), Alexa647-labelled | 0.929 |

[in] Can you share its composite z-score? I mean this molecule: COc1ccc(-c2ccc3c(n2)CCCN3CC(O)CN2CCCc3nc(C)c(C)cc32)cc1 (configuration not stated)
[out] 1.03

[in] Can you share its composite z-score? I mean this molecule: O=C1C2=CC[C@H]3C(=O)N(Cc4ccc5c(c4)OCO5)C(=O)[C@H]3[C@H]2[C@H](O)[C@@H]2O[C@H]12
[out] -0.0306

[in] Can you share its composite z-score? I mean this molecule: COC(=O)[C@H](C)NC(=O)CCC1CC(OC(=O)NCCc2ccc(F)cc2)CC2(CCCC(COC(=O)NCCc3ccc(Cl)cc3)O2)O1 (some centres not stated)
[out] 0.766

[in] Can you share its composite z-score? I mean this molecule: CC(=O)OC[C@H]1O[C@H](C#CCCCc2ccccc2)C=C[C@@H]1OC(C)=O
[out] 0.353

Data origin, for the record: PubChem BioAssay
